- Tested on: BT-549
- procedure-text: NCI tumour cell line growth inhibition, 48 h
Active and inactive are the calls of the source. No stated cut-off is given here; in the data, active = GI50 up to about 1.1 µM and inactive = higher.
Your response should consist of one outcome taken from active, inactive

So what was the verdict on COc1cc(C2c3cc4c(cc3OC(Nc3ccc(C(=O)O)cc3)C2C)OCO4)cc(OC)c1OC (stereo not drawn) in this test? active

What did this assay record as the result for Oc1ncc(N(CCCl)CCCl)c(O)n1 ? inactive

What call does the record list for NC(=O)c1ncn(C2OC(CO)C(O)C2O)c1NC=O (stereo not drawn) ? inactive

Returns: the outcome recorded for O=c1nc2n3c4c(cccc4nc-2c(=O)[nH]1)CCC3 in this assay. inactive

What did the test return for CC(=O)c1c(N=[N+]=[N-])c2cccc3c2n(c1=O)CCC3 ? inactive

GET /call?item= Cc1c(F)c(NC(=O)CN(C)C)c2c(=O)cc(-c3ccc(NC(=O)CN(C)C)c(F)c3)oc2c1F returns the recorded outcome of this test. inactive

Check the results log: what was the call for O=C(/C=C/c1csc(-c2ccccc2)n1)NCc1ccc(C(=O)NCCc2ccccc2)cc1 ? inactive

What outcome does the record of this test show for Brc1ccc2[nH]cc(-c3csc(-c4ccccn4)n3)c2c1 ? inactive

For this compound, state the assay outcome: CN(C)CCCNc1cnc2cc3ccccc3cc2n1 inactive

# lookup: test call for O=C(O)C(F)(OC(F)(F)C(F)(F)C(F)(F)F)C(F)(F)F (stereo not drawn) inactive

Test call, this compound: Cc1cc2nc3c(C)c4ccccc4c(C)n3c2cc1C inactive

Answer briefly: the call reported for Cc1cc(CN(Cc2ccccc2)Cc2nc3ccccc3[nH]2)c(O)c(CN(Cc2nc3ccccc3[nH]2)Cc2nc3ccccc3[nH]2)c1 in this assay. inactive

Lab log entry: CCOC1=C(c2ccccc2)N2CCCCC2O1 (stereo not drawn) — outcome as called in the assay? inactive

GET /call?item= COc1cc(C2SCCCCCCCCCCSC(c3ccc(O)c(OC)c3)SCCCCCCCCCCS2)ccc1O (stereo not drawn) returns the recorded outcome of this test. inactive

What classification did COc1ccc(N2C(=O)CSC2c2cc3cc(Br)ccc3nc2Cl)cc1 (stereo not drawn) end up with in this test? inactive

Hi team, can someone confirm the assay call for C[C@@]12C[C@@H](c3ccccc3O1)N1Cc3ccccc3CSC1=N2 ? inactive

Each compound tested received a call. Report the one for Nc1cccc(OCC2CCCN3CCCCC23)c1 (stereo not drawn) . inactive

Tell me the assay call for CCCCCCNC(=O)CCC(NC(=O)c1ccc(N(C)Cc2cnc3nc(N)nc(N)c3n2)cc1)C(=O)NCCCCCC (stereo not drawn) please. inactive

How was O=S(=O)(Cc1cnc(O)nc1O)Cc1cnc(O)nc1O classified in this test? inactive

Field: outcome | Entry: COC(=O)C(C)(Cc1ccc2c(c1)nnn2C(C)=O)NC(C)=O (stereo not drawn) inactive

Please share the test call associated with Cc1ccc(-n2c(Cn3nnc(-c4cccnc4)n3)nn(C3OC(COC(=O)c4ccccc4)C(OC(=O)c4ccccc4)C3OC(=O)c3ccccc3)c2=S)cc1 (stereo not drawn) . inactive

Per the assay record, what outcome was assigned to CCOC(=O)C(Cc1ccc(N(CCCl)CCCl)cc1)NC(=O)C(Cc1ccccc1)NC=O (stereo not drawn) ? active

# outcome recorded in this test, key = COC(=O)C1C/C(=C/N(C)C)C(=S)N1 (stereo not drawn) inactive

Answer briefly: the call reported for CC(=O)CC(=O)Nc1ccc2ccccc2c1 in this assay. inactive

Please let me know the test result on file for O=C(NCCCCCCO)c1cccc2cc3ccccc3nc12 . inactive

// outcome(item) with item = CC(NC(=O)c1c(O)[nH]c(=S)[nH]c1=O)c1ccc([N+](=O)[O-])cc1 (stereo not drawn) inactive

So what was the verdict on COCCOC(C)C(=O)C(O)S(=O)(=O)O (stereo not drawn) in this test? inactive

Lab log entry: Cn1c(=O)c2sc3c4sc5c(=O)n(C)c6ccccc6c5c4sc3c2c2ccccc21 — outcome as called in the assay? inactive

For this compound, state the assay outcome: O=C1NC(=O)C2(CCCCCC2)N1 inactive

Outcome logged for CCS(=O)(=O)CCn1cnc2c1c(=O)n(C)c(=O)n2C in this assay: inactive

Assay result, entry C=C(Nc1nc2ccc(C)cc2s1)C(=O)C(CC)C(=O)C(CC)CC1C(=O)NC(=O)NC1=O (stereo not drawn) — outcome? inactive

What is the recorded call for this compound in the test? CC1C(NNC(N)=O)Oc2cc3c(cc2C1c1ccccc1O)OCO3 (stereo not drawn) inactive

Entry CN(C)CCNC(=O)c1cc(-c2nccn2C)nc2ccccc12 : call = ? inactive

Lab log entry: Cc1cc2c(c(/C=N/c3ccc([N+](=O)[O-])cc3)c1)OC1(C=C2)Oc2ccccc2C(=O)N1C (stereo not drawn) — outcome as called in the assay? inactive

Per the records of this test, what outcome belongs to OC1CSc2nc3ccccc3n2C1 (stereo not drawn) ? inactive

For this compound, state the assay outcome: C=CC(C)(C)c1cc([C@@H]2COc3cc(O)ccc3C2=O)c(O)c(OC)c1OC inactive

Returns: the outcome recorded for CC(C)(C)OC(=O)N(O)[C@@H]1C=C[C@H](n2cnc3c(N)ncnc32)C1 in this assay. inactive

Please let me know the test result on file for c1ccc(CNCCN2CCNCC2)nc1 . inactive

Outcome? C/C=C/C=C/C1=NN(c2cccc(S(=O)(=O)O)c2)C2(C1)SCC(=O)N2c1nc2ccccc2s1 (stereo not drawn) inactive

Hi team, can someone confirm the assay call for CC(C)(C)c1cc2c(O)c(c1)COCc1cc(C(C)(C)C)cc(c1O)COCc1cc(C(C)(C)C)cc(c1O)COC2 ? inactive

Kindly provide the recorded test outcome for the following compound: O=C1CSC(c2c[nH]c3ccccc23)N1c1cccc(Cl)c1 (stereo not drawn) inactive

Please share the test call associated with CC[N+](C)(CC)CCC(O)(c1ccccc1)c1ccccc1 . inactive

Could you please tell me the result logged for O=C1c2ccccc2-c2c1c(-c1ccc([N+](=O)[O-])cc1)nc1ccc3ccccc3c21 in this assay? inactive
